# T/C annotations
# Tested on: P388 leukemia ip, CD2F1 mice, survival T/C
# assay: NCI In Vivo Anticancer Drug Screen. Data for tumor model P388 Leukemia (intraperitoneal) in CD2F1 (CDF1) mice
# condition: endpoint: median survival time; dose: 120.0 mg/kg/injection; schedule: Q01DX005 (ip); vehicle: saline with Tween-80; higher = longer survival
Inconclusive results and toxic doses are left out.
measured quantity: T/C

compound | value reported
CCCOc1cc2c(cc1C(C)c1ccc(OCC)cc1)OCO2 (stereo unspecified) | 113 % of control
Nc1nc(-c2ccc(Cl)c(Cl)c2)cc(-c2cc(-c3ccc(Cl)c(Cl)c3)nc(N)n2)n1 | 95 % of control
CC1(C)CCCC(C)(C(=O)O)O1 (stereo unspecified) | 101 % of control
COc1ccccc1NC(=O)C1=C(C)NC(C)=C(C(=O)Nc2ccccc2C)C1c1ccccc1 (stereo unspecified) | 104 % of control
Cc1nc(O)c(-c2ccc(Cl)cc2)c(=O)[nH]1 | 109 % of control
C#CCSc1n[nH]c(-c2ccco2)n1 | 105 % of control
NC(=O)C(=O)NNC(=O)CCn1[nH]c(=O)c(Cl)c(Cl)c1=O | 103 % of control
O=C(Cc1nc2cc(Cl)c(Cl)cc2nc1CC(=O)c1cccnc1)c1cccnc1 | 103 % of control
C=C(C)C(O)CCCO[Si](c1ccccc1)(c1ccccc1)C(C)(C)C (stereo unspecified) | 95 % of control
CC(C)(C)n1nc(C2CC2)cc1NC(=O)Nc1ccc(Cl)cc1 | 94 % of control
CCn1c2ccccc2c2c3ncc4cccn4c3ccc21 | 98 % of control

====

# Tested on: P388 leukemia ip, CD2F1 mice, survival T/C
# assay: NCI In Vivo Anticancer Drug Screen. Data for tumor model P388 Leukemia (intraperitoneal) in CD2F1 (CDF1) mice
# condition: endpoint: median survival time; dose: 30.0 mg/kg/injection; schedule: Q01DX005 (ip); vehicle: saline with Tween-80; higher = longer survival
Toxic doses and inconclusive results are not listed.
# T/C annotations
measured quantity: T/C

item smiles | measured quantity | value reported
COC(=O)C(=O)c1c(C(=O)OC)nc2nnc(N)n2c1-c1cccc([N+](=O)[O-])c1 | T/C | 91 % of control
S=CN1CCCCC1 | T/C | 106 % of control
C[Si](C)(CCCNCCN)O[Si](C)(C)CCCNCCN | T/C | 118 % of control
C/C(=N\N)c1nc2ccccc2[nH]1 | T/C | 101 % of control
Cc1cc2nc(CC(=O)c3cccc([N+](=O)[O-])c3)c(=O)[nH]c2cc1C | T/C | 91 % of control
Cc1nc2ccc(N)cc2oc1=O | T/C | 101 % of control
[B-]1n2ccc[n+]2[B-]n2ccc[n+]21 | T/C | 100 % of control
COc1ccc(/C(=N\O)c2nccc3cc(OC)c(OC)cc23)cc1OC | T/C | 105 % of control
ClC(Cl)(Cl)C(=NNc1ccccc1)C(Cl)(Cl)Cl | T/C | 104 % of control
O=C(CNC(=O)Nc1ccc(Cl)c(Cl)c1)N/N=C/c1cccc(F)c1 | T/C | 91 % of control

====

# System: P388 leukemia ip, CD2F1 mice, survival T/C
# assay: NCI In Vivo Anticancer Drug Screen. Data for tumor model P388 Leukemia (intraperitoneal) in CD2F1 (CDF1) mice
# condition: endpoint: median survival time; dose: 400.0 mg/kg/injection; schedule: Q01DX009 (ip); vehicle: saline
Toxic doses and inconclusive results are not listed. The calls were made as follows: active = survival T/C of 150% or more; inactive = T/C below 125% in these data. Square brackets hold non-standard residues; d marks the D form. Peptide text beside a SMILES is read from it. * marks the point of attachment. ξ: configuration not given here. Boc = CC(C)(C)OC(=O)*; ξP = O=C(O)C1CCCN1
Possible outcomes: 1.0 = active, 0.0 = inactive

compound | class name
S=C(S)NN1CCOCC1 | 0.0
Oc1ccccc1C(Nc1nc2ccccc2s1)c1ccc2cccnc2c1O (stereo unspecified) | 0.0
OC(CI)C(O)C(O)C(O)CI (stereo unspecified) | 0.0
CC(O)C(O)C(=O)O (stereo unspecified) | 0.0
COC(=O)C1CCCN1C(=O)CNC(=O)OC(C)(C)C (stereo not drawn) (Boc-Gly-[ξP]-OMe) | 0.0
CNC(=S)N/N=C(\c1ccccc1)c1ccccn1 | 0.0
Cc1cc(C(=O)NN)c(C#N)c(=O)[nH]1 | 0.0
CCNC(=O)Oc1ccc[nH]c1=O | 0.0
O=C1OC(C(O)CO)C(O)=C1OC[N+]1(CCCl)CCN(CCCl)CC1 (stereo unspecified) | 1.0
CC(C)=CCC/C(C)=C/COC(=O)C1C(C=C(C)C)C1(C)C (stereo unspecified) | 0.0
C/C(=N\O)C(O)c1ccccc1 (stereo unspecified) | 0.0

====

# Test system: P388 leukemia ip, CD2F1 mice, survival T/C
# assay: NCI In Vivo Anticancer Drug Screen. Data for tumor model P388 Leukemia (intraperitoneal) in CD2F1 (CDF1) mice
# condition: endpoint: median survival time; dose: 50.0 mg/kg/injection; schedule: Q01DX009 (ip); vehicle: other; higher = longer survival
Inconclusive results and toxic doses are left out.
# T/C annotations

molecule | T/C
CC1C(c2ccccc2)=Nn2c(=O)n(-c3ccccc3)c(=O)n21 (centres undefined) | 91 % of control
COC1OC2COC(c3ccccc3)OC2C2OC(c3ccccc3)OC12 (centres undefined) | 91 % of control
CCOC(=O)N(NC(=O)c1ccccc1)C(C)=O | 99 % of control
COc1cc2c(cc1OC)C(=O)c1ncccc1C2=O | 99 % of control
[N-]=[N+]=CC(=O)Oc1ccc([N+](=O)[O-])cc1 | 89 % of control
O=C(Oc1ccc(NC(=O)c2cc3c(cc2Br)OCO3)cc1)c1ccccc1 | 103 % of control
O=C(COP(=O)(OCC(=O)Oc1ccc([N+](=O)[O-])cc1)Oc1ccc([N+](=O)[O-])cc1)Oc1ccc([N+](=O)[O-])cc1 | 98 % of control
N=C(N)c1nc2ccccc2s1 | 93 % of control
COC(=O)C1=NNC(C(=O)OC)=NN1 | 106 % of control

====

# System: P388 leukemia ip, CD2F1 mice, survival T/C
# assay: NCI In Vivo Anticancer Drug Screen. Data for tumor model P388 Leukemia (intraperitoneal) in CD2F1 (CDF1) mice
# condition: endpoint: median survival time; dose: 25.0 mg/kg/injection; schedule: Q04DX003 (ip); vehicle: saline; higher = longer survival
# Method: The antitumor activity of compounds was measured in mice bearing transplantable tumors. Survival or tumor size were measured and the results are expressed as the measurement made in the treated group (T) divided by the measurement made in the vehicle treated control group (C). The tumor model used in this assay is P388 Leukemia (intraperitoneal) in CD2F1 (CDF1) mice
Inconclusive results and toxic doses are left out.
# T/C annotations
measured quantity: T/C

molecule | value reported
Cc1ccc(C(=O)C=C(C(F)(F)F)C(F)(F)F)cc1 | 104 % of control
CCCCC(CC)COP(=O)(CC(CC)CCCC)OCC(CC)CCCC (stereo not given) | 100 % of control
c1ccc(C[N+]23CCN(CC2)CC3)cc1 | 95 % of control
COC(=O)C(CSCSCc1ccccc1)NC(=O)C(CSCc1ccccc1)NC(=O)CCNC(=O)OCc1ccccc1 (stereo not given) | 112 % of control
[Cl][Pd][Cl].[NH-]C(C(=O)OCc1ccccc1)c1ccccc1.[NH-]C(C(=O)OCc1ccccc1)c1ccccc1 (stereo not given) | 97 % of control

====

# Tested on: P388 leukemia ip, CD2F1 mice, survival T/C
# assay: NCI In Vivo Anticancer Drug Screen. Data for tumor model P388 Leukemia (intraperitoneal) in CD2F1 (CDF1) mice
# condition: endpoint: median survival time; dose: 200.0 mg/kg/injection; schedule: Q01DX005 (ip); vehicle: saline with Tween-80; higher = longer survival
Inconclusive results and toxic doses are left out.
# T/C annotations

compound | T/C
CCCOC(=O)c1ccc2nc(NC(=O)OC)[nH]c2c1 | 97 % of control
Cc1cnc2cc(Cl)ccc2c1SCC(=O)O | 108 % of control
COC(=O)C1(c2ccccc2)OP2(N(C)C)(OCCN2C)OC1(C(=O)OC)c1ccccc1 (configuration not stated) | 91 % of control
C/C(N=NC(=S)N1CCN(c2ccccc2)CC1)=C1\C=CC=CN1O | 103 % of control
Nc1ncnc2c1ncn2C1OC(COC(c2ccccc2)(c2ccccc2)c2ccccc2)C(O)C1O (configuration not stated) | 90 % of control
O=C(NC(=O)c1cc2cc(Cl)cc(Cl)c2oc1=O)Oc1ccccc1 | 98 % of control
CC(C)OC(=O)Nc1ccc2nc(-c3cscn3)[nH]c2c1 | 151 % of control
C=CC(=O)Oc1ccccc1/C=C/C(=O)CCCCCC | 105 % of control
NC(=Nc1ccc(S(=O)(=O)Nc2cnc3ccccc3n2)cc1)/N=C(/N)Nc1ccc(Br)cc1 | 99 % of control
C=CCSCC1Nc2cc(Cl)c(S(N)(=O)=O)cc2S(=O)(=O)N1C (configuration not stated) | 101 % of control
N#C/C(=N\NC(=O)c1cccc(C(=O)N/N=C(\C#N)c2ccccc2Cl)n1)c1ccccc1Cl | 100 % of control
C[C@]12CC[C@@H]3c4ccc(O)c(N)c4CC[C@H]3[C@@H]1CC[C@@H]2O | 90 % of control
O=C1c2cccc3cccc(c23)C(=O)N1c1ncn[nH]1 | 88 % of control
Cc1[nH]nc2c1NC(=O)OCC2 | 101 % of control
O=C(Nc1cccc2c1C(=O)c1cccc(Nc3ccc(NC(=O)c4ccccc4)c4c3C(=O)c3ccccc3C4=O)c1C2=O)c1ccccc1 | 93 % of control
CC(NC(=O)C(Cc1c[nH]c2ccccc12)NC(=O)OCc1ccccc1)C(=O)O (configuration not stated) | 97 % of control
Cc1ccc(N)c(C(=O)Nc2ccc(Br)cc2)c1 | 95 % of control
CN(C)c1nc(N)nc2c1nc(Cl)n2C1OC(CO)C(O)C1O (configuration not stated) | 100 % of control
C=CCN1C(=O)CCN(S(=O)(=O)c2ccc(-n3nc(C(=O)O)cc3C)cc2)C1=S | 99 % of control
CC(C)=CCC/C(C)=C/CSC#N | 104 % of control
Nc1ccc(O)c2c1C(=O)c1ccccc1C2=O | 101 % of control
Nc1cc(-c2ccc(Br)cc2)nn1-c1nnc(-c2ccccc2)c(-c2ccccc2)n1 | 92 % of control
